# assayed.system: Kelch-like ECH-associated protein 1 (Homo sapiens)
# test: Keap1 Kelch domain binders by melting shift, dose response, orthogonal assay for Keap1-Nrf2 interaction inhibitor project, biophysical, thermal shift, RT-PCR instrument, dry powder (AID 651829)
# experimental.parameters: Recombinant Keap1 Kelch domain, Sypro Orange, at 10 µM, top dose 38 µM, hits give high values
Calls of active or inactive are those of the source.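 The calls were made as follows: active = max delta Tm melting temperature shift above 1 degree C at some tested dose; inactive = the rest.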
The entries below come with measured max delta Tm values attached.

See these solved cases before continuing.
O=C(O)CC(=O)N1CCc2ccccc2C1CN1C(=O)c2ccccc2C1=O (centres undefined): -0.045 °C (inactive)
Cc1cc(C)c(S(=O)(=O)Nc2cc(C(C(=O)OCc3ccccc3)C(=O)OCc3ccccc3)c(O)c3ccccc23)c(C)c1: 0.088 °C (inactive)
O=C(O)CCCC(=O)N1CCc2ccccc2C1CN1C(=O)c2ccccc2C1=O (centres undefined): 0.13 °C (inactive)

API: the following record is the query input.
Reported max delta Tm of C[C@H](NC(=O)C1CCCC[C@H]1C(=O)O)c1ccccc1 (mixture of isomers) : -0.003 °C (inactive)

---

# assayed.system: Kelch-like ECH-associated protein 1 (Homo sapiens) (UniProt Q14145)
# Sequence (Q14145 whole entry, looked up, the tested form may be a part): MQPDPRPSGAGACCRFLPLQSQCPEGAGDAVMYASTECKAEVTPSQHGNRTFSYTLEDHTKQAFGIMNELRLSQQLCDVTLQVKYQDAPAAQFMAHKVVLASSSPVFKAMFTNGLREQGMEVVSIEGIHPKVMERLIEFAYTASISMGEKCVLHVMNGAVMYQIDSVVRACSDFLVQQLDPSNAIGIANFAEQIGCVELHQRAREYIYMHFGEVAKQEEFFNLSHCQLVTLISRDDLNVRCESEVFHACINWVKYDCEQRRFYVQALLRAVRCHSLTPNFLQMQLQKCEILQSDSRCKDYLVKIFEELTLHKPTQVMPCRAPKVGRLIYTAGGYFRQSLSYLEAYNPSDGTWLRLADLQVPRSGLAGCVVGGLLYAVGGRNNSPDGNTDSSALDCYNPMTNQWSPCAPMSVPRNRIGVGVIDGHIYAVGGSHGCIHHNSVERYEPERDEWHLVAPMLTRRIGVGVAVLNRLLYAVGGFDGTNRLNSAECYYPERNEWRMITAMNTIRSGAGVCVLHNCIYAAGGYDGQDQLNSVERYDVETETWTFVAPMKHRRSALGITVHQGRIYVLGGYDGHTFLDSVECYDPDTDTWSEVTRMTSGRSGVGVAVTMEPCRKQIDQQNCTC
# test: Keap1 Kelch domain binders by melting shift, dose response, orthogonal assay for Keap1-Nrf2 interaction inhibitor project, biophysical, thermal shift, RT-PCR instrument, dry powder (AID 651829)
# experimental.parameters: Recombinant Keap1 Kelch domain, Sypro Orange, at 0.16 µM, top dose 38 µM, hits give high values
Active and inactive are the calls of the source.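 Rule for the calls: active = max delta Tm melting temperature shift above 1 degree C at some tested dose; inactive = the rest.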
readout.label: max delta Tm

COC(=O)C1CCCCC1C(=O)N1CCc2ccccc2C1CN1C(=O)c2ccccc2C1=O (stereo not drawn): 0.175 °C (inactive)
O=C1c2ccccc2C(=O)N1C[C@@H]1c2ccccc2CCN1C(=O)OCc1ccccc1: -0.028 °C (inactive)

API: the following record is the query input.
Reported max delta Tm of Cc1cc(C)c(S(=O)(=O)Nc2nc(N(C)C)nc3ccccc23)c(C)c1 : 0.107 °C (inactive)

---

The entries below come with measured max delta Tm values attached.
# assayed.system: Kelch-like ECH-associated protein 1 (Homo sapiens) (UniProt Q14145)
# test: Keap1 Kelch domain binders by melting shift, dose response, orthogonal assay for Keap1-Nrf2 interaction inhibitor project, biophysical, thermal shift, RT-PCR instrument, dry powder (AID 651829)
# experimental.parameters: Recombinant Keap1 Kelch domain, Sypro Orange, at 0.6 µM, top dose 38 µM, hits give high values
Calls of active or inactive are those of the source.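 Rule for the calls: active = max delta Tm melting temperature shift above 1 degree C at some tested dose; inactive = the rest.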

See these solved cases before continuing.
CC(C)CNc1nc(NS(=O)(=O)c2ccccc2)c2ccccc2n1: 0.095 °C (inactive)
C=CC(=O)NC[C@@H]1c2ccccc2CCN1C(=O)[C@@H]1CCCC[C@@H]1C(=O)O: 0.229 °C (inactive)
CCOC(=O)Cc1nc(NS(=O)(=O)c2c(C)cc(C)cc2C)c2ccccc2n1: 0.029 °C (inactive)
O=C(NC[C@@H]1c2ccccc2CCN1C(=O)[C@@H]1CCCC[C@@H]1C(=O)O)OCC1c2ccccc2-c2ccccc21: 0.138 °C (inactive)

API: the following record is the query input.
Reported max delta Tm of COC(=O)[C@@H]1CCCC[C@@H]1C(=O)N1CCc2ccccc2[C@@H]1CN1C(=O)c2ccccc2C1=O : -0.035 °C (inactive)

---

# assayed.system: Kelch-like ECH-associated protein 1 (Homo sapiens)
# test: Keap1 Kelch domain binders by melting shift, dose response, orthogonal assay for Keap1-Nrf2 interaction inhibitor project, biophysical, thermal shift, RT-PCR instrument, dry powder (AID 651829)
# experimental.parameters: Recombinant Keap1 Kelch domain, Sypro Orange, at 0.3 µM, top dose 38 µM, hits give high values
Active and inactive are the calls of the source.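 The calls were made as follows: active = max delta Tm melting temperature shift above 1 degree C at some tested dose; inactive = the rest.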
The entries below come with measured max delta Tm values attached.

Reported max delta Tm of COC(=O)CNc1nc(NS(=O)(=O)c2c(C)cc(C)cc2C)c2ccccc2n1 : 0.26 °C (inactive)

Reported max delta Tm of Cc1ccc(S(=O)(=O)NNc2nc(C(C(=O)OC(C)C)C(=O)C(F)(F)F)nc3ccccc23)cc1 (stereo not drawn) : 0.2 °C (inactive)

Reported max delta Tm of O=C(O)C1CCCCC1C(=O)NCC1c2ccccc2CCN1C(=O)Cc1ccccc1 (stereo not drawn) : 0.052 °C (inactive)

Reported max delta Tm of Cc1ccc(S(=O)(=O)NNc2nc(NCC(N)=O)nc3ccccc23)cc1 : 0.22 °C (inactive)

Reported max delta Tm of CCOC(=O)C(C(=O)OCC)c1cc(CNS(=O)(=O)c2ccc(C)cc2C)c2ccccc2n1 : 0.118 °C (inactive)

Reported max delta Tm of Cc1ccc(S(=O)(=O)NC(=O)[C@@H]2c3ccccc3CCN2C(=O)[C@@H]2CCCC[C@@H]2C(=O)O)cc1 : 0.155 °C (inactive)

Reported max delta Tm of O=S(=O)(Nc1nc(NCC2CCCCC2)nc2ccccc12)c1ccccc1 : 0.21 °C (inactive)

Reported max delta Tm of COc1ccccc1CCNC(=O)[C@@H]1c2ccccc2CCN1C(=O)C1CCCCC1C(=O)O (stereo partly drawn) : 0.192 °C (inactive)

---

# assayed.system: Kelch-like ECH-associated protein 1 (Homo sapiens) (UniProt Q14145)
# test: Keap1 Kelch domain binders by melting shift, dose response, orthogonal assay for Keap1-Nrf2 interaction inhibitor project, biophysical, thermal shift, RT-PCR instrument, dry powder (AID 651829)
# experimental.parameters: Recombinant Keap1 Kelch domain, Sypro Orange, at 0.16 µM, top dose 38 µM, hits give high values
Calls of active or inactive are those of the source.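 How the source made its calls: active means max delta Tm melting temperature shift above 1 degree C at some tested dose; inactive means the rest.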
readout.label: max delta Tm

See these solved cases before continuing.
O=C(O)C1CCCCC1C(=O)N1CCc2ccccc2[C@H]1C(=O)NCCc1ccccc1 (some centres undefined): 0.168 °C (inactive)
O=C(O)[C@H]1CCCC[C@H]1C(=O)N1CCC2=C(CCCC2)C1CN1C(=O)c2ccccc2C1=O (some centres undefined): 0.172 °C (inactive)
O=C(O)c1ccccc1C(=O)NC[C@@H]1c2ccccc2CCN1C(=O)[C@@H]1CCCC[C@@H]1C(=O)O: -0.037 °C (inactive)
O=C(NCCCN1CCOCC1)c1ccccc1C(=O)NC[C@@H]1c2ccccc2CCN1C(=O)C1CCCCC1C(=O)O (some centres undefined): 0.217 °C (inactive)
O=C(NC[C@@H]1c2ccccc2CCN1C(=O)[C@@H]1CCCC[C@@H]1C(=O)O)c1ccccc1: 0.132 °C (inactive)

Reported max delta Tm of O=C(O)[C@H]1CCCC[C@H]1C(=O)NC(CN1C(=O)c2ccccc2C1=O)c1ccccc1 (some centres undefined) : 0.154 °C (inactive)

Reported max delta Tm of O=C(O)[C@H]1CCCC[C@H]1C(=O)N1CCc2ccccc2C1 (racemic) : -0.041 °C (inactive)

Reported max delta Tm of Cc1cc(C)c(S(=O)(=O)Nc2nc(NCCO)nc3ccccc23)c(C)c1 : 0.147 °C (inactive)

Reported max delta Tm of O=C(O)[C@H]1CCCC[C@H]1C(=O)N1CCc2ccccc2[C@H]1CNc1nc(Cl)nc2ccccc12 : 0.129 °C (inactive)

---

# assayed.system: Kelch-like ECH-associated protein 1 (Homo sapiens)
# test: Keap1 Kelch domain binders by melting shift, dose response, orthogonal assay for Keap1-Nrf2 interaction inhibitor project, biophysical, thermal shift, RT-PCR instrument, dry powder (AID 651829)
# experimental.parameters: Recombinant Keap1 Kelch domain, Sypro Orange, at 38 µM, top dose 38 µM
Activity calls are given as the source filed them.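 How the source made its calls: active means max delta Tm melting temperature shift above 1 degree C at some tested dose; inactive means the rest.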
Pick one and only one: active, inactive

O=C(NCCc1ccccc1)c1ccccc1C(=O)NC[C@@H]1c2ccccc2CCN1C(=O)C1CCCCC1C(=O)O (stereo partly drawn): active
O=C(O)[C@@H]1CCCN1C(=O)N1CCc2ccccc2[C@H]1CN1C(=O)c2ccccc2C1=O: active
O=C1c2ccccc2C(=O)N1C[C@@H]1c2ccccc2CCN1C(=O)C1CCCCC1: inactive
O=C(O)/C=C\C(=O)N1CCc2ccccc2C1CN1C(=O)c2ccccc2C1=O (stereo not drawn): active
O=C(O)[C@H]1CCCC[C@H]1C(=O)N1CCC2=C(CCCC2)C1CN1C(=O)c2ccccc2C1=O (stereo partly drawn): active
Cc1ccccc1S(=O)(=O)Nc1cc(C(C(=O)OC(C)C)C(=O)C(F)(F)F)c(O)c2ccccc12 (stereo not drawn): active
Cc1ccc(S(=O)(=O)Nc2cc(C(C(=O)OC(C)C)C(=O)C(F)(F)F)c(O)c3ccccc23)cc1 (stereo not drawn): active
O=C(NC[C@@H]1c2ccccc2CCN1C(=O)[C@@H]1CCCC[C@@H]1C(=O)O)c1ccc(CN2CCOCC2)cc1: inactive

Write down the call the test reported for this compound. Item: O=C(O)C1CCCCC1C(=O)N1CCc2ccccc2C1CN1Cc2ccccc2C1=O (stereo not drawn) active

Write down the call the test reported for this compound. Item: O=C(NC[C@@H]1c2ccccc2CCN1C(=O)[C@@H]1CCCC[C@@H]1C(=O)O)c1ccccc1CO active

Write down the call the test reported for this compound. Item: Cc1ccc(S(=O)(=O)Nc2cc(C(C(=O)OC(C)C)C(=O)C(F)(F)F)c(O)c3ccccc23)c(C)c1 (stereo not drawn) active

Write down the call the test reported for this compound. Item: COC(=O)C(C(=O)OC)c1cc(NS(=O)(=O)c2c(C)cc(C)cc2C)c2ccccc2c1O active

Write down the call the test reported for this compound. Item: O=C(O)C1CCCCC1C(=O)N1CCc2ccccc2C1CN1C(=O)[C@H]2CCCC[C@H]2C1=O (stereo partly drawn) active

Write down the call the test reported for this compound. Item: O=C(O)[C@H]1CCCC[C@H]1C(=O)N1CCc2ccccc2[C@H]1CNS(=O)(=O)c1ccccc1 inactive

Write down the call the test reported for this compound. Item: O=C(O)[C@H]1CCCC[C@H]1C(=O)N1CCc2ccccc2[C@H]1CNS(=O)(=O)c1ccc([N+](=O)[O-])cc1 inactive

Write down the call the test reported for this compound. Item: O=C(NC[C@@H]1c2ccccc2CCN1C(=O)[C@@H]1CCCC[C@@H]1C(=O)O)c1ccc(CCl)cc1 inactive

Write down the call the test reported for this compound. Item: C[C@@H](NC(=O)C1CCCC[C@H]1C(=O)O)c1ccccc1 (mixture of isomers) inactive

Write down the call the test reported for this compound. Item: O=C(O)C1CCCCC1C(=O)N1CCc2ccccc2C1CN1C(=O)Cc2ccccc2C1=O (stereo not drawn) active

Write down the call the test reported for this compound. Item: CC(C)OC(=O)C(C(=O)C(F)(F)F)c1cc(NS(=O)(=O)c2ccccc2)c2ccccc2c1O (stereo not drawn) active

Write down the call the test reported for this compound. Item: O=C(O)C1CCCCC1C(=O)N1CCc2ccccc2C1CN1C(=O)c2ccccc2S1(=O)=O (stereo not drawn) active

Write down the call the test reported for this compound. Item: NC(=O)[C@H]1CCCC[C@H]1C(=O)N1CCc2ccccc2[C@H]1CN1C(=O)c2ccccc2C1=O active

Write down the call the test reported for this compound. Item: O=C(O)Cc1ccccc1C(=O)N1CCc2ccccc2[C@H]1CN1C(=O)c2ccccc2C1=O active
